Provide the reported Activity of each item.
Organism: Mus musculus
test-name: Stimulation of alkaline phosphatase activity in mouse calvarial osteoblasts at 1 pM to 1 uM after 48 hrs by spectrophotometric analysis
# output: bare number, implied unit %

Field Activity (entry COC(=O)C1=C(C)NC2=C(C(=O)CCC2)C1c1cc(C(C)(C)C)c2oc(=O)c(C(=O)OC)cc2c1 (racemic) ) reads 14

Field Activity (entry CCOC(=O)c1cc2cc(C3C(C(=O)OC)=C(C)NC(C)=C3C(=O)OC)cc(C(C)CC)c2oc1=O (configuration not stated) ) reads 20

Field Activity (entry CCOC(=O)C1=C(C)NC(C)=C(C(=O)OCC)C1c1cc(C(C)CC)c2oc(=O)c(C(=O)OCC)cc2c1 (configuration not stated) ) reads 4

Field Activity (entry CCOC(=O)c1cc2cc(C=O)cc(C(C)CC)c2oc1=O (configuration not stated) ) reads 6

Field Activity (entry CCOC(=O)C1=C(C)NC2=C(C(=O)CCC2)C1c1cc(C(C)(C)C)c2oc(=O)c(C(=O)OC)cc2c1 (racemic) ) reads 4

Field Activity (entry CCC(C)c1cc(C2C(C(=O)OC)=C(C)NC3=C2C(=O)CCC3)cc2cc(C(=O)OC)c(=O)oc12 (racemic) ) reads 4

Field Activity (entry CCOC(=O)C1=C(C)NC2=C(C(=O)CC(C)(C)C2)C1c1cc(C(C)(C)C)c2oc(=O)c(C(=O)OCC)cc2c1 (racemic) ) reads 4
